Entries with reported pIC50 on Prothrombin (Homo sapiens, UniProt P00734)
Value format note: pIC50 is -log10 of concentration (mol/L); just state the number.

Sample records with pIC50:
N=C(N)N1CCC[C@H](NC(=O)CN2CCC[C@@](N)(Cc3ccccc3)C2=O)[C@@H]1O 6.86
CCOC(=O)[C@]1(NS(=O)(=O)Cc2ccccc2)CCCN(CC(=O)N[C@H]2CCCN(C(=N)N)[C@H]2O)C1=O 7.19

// next item, pIC50 requested
Checklist item: pIC50 tested on Prothrombin (Homo sapiens, UniProt P00734), entry CCOC(=O)[C@]1(NS(=O)(=O)Cc2ccccc2)CCCN(CC(=O)N[C@H]2CCCN(C(=N)N)[C@@H]2O)C1=O , value?
8.96
